Origin of values: the supplement of paper PMC12645437

# studySystem: T1, CRBN, Q96SW2;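 also: pooled lentiviral library of zinc finger degron-EGFP fusions in mCherry-positive Jurkat cells, FACS-sorted after compound exposure, with degron abundance counted by next-generation sequencing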
# T1 chain: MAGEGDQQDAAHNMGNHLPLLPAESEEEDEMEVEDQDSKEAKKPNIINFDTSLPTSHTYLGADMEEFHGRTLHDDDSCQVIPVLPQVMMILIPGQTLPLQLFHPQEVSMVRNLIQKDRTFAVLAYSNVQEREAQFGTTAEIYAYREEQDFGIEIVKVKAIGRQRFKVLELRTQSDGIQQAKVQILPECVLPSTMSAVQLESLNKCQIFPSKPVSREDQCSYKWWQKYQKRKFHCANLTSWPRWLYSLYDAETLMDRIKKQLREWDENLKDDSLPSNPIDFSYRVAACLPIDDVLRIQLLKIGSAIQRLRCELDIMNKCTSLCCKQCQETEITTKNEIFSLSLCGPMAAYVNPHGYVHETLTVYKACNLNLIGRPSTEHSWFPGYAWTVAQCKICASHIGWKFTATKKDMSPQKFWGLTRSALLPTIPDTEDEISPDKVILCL
# assayInfo: log2 fold change of degron read counts, EGFP-low vs EGFP+ sorted cells (limma voom), compound-induced degradation; higher = more compound-induced degradation of the degron-EGFP fusion; degrons are variants of IKZF1/3 zinc finger 2; compound dose not given here
# runConditions: Jurkat; 18 h; compound: compound 19 (5-tert-butyl-thalidomide)
Whole data set: some 8,300 sequences, median “log2 fold change of degron read counts, EGFP-low vs EGFP+ sorted cells (limma voom), compound-induced degradation” near -1.1, cut for the highest 2% near 3.2. Shown is part of a subset that was picked to be rich in the highest values.
Label true (1) for high-side log2 fold change of degron read counts (at or above 2) and false (0) for low-side log2 fold change of degron read counts (below it).

{"sequenceChain": "FRCPICGACFTQKGNLLRHIKL [46F_47R_49P_50I_52G_53A_54C_55F_67L_, Q9UKT9]", "classification": "false (0)"}
{"sequenceChain": "FCCDQCGAVFTQKGNLLRHIKL [46F_47C_49D_50Q_52G_53A_54V_55F_67L_, Q9UKT9]", "classification": "false (0)"}
{"sequenceChain": "FVCPICGAMFTQKGNLLRHIKL [46F_47V_49P_50I_52G_53A_54M_55F_67L_, Q9UKT9]", "classification": "false (0)"}
{"sequenceChain": "FGCPICGACFTQKGNLLRHIKL [46F_47G_49P_50I_52G_53A_54C_55F_67L_, Q9UKT9]", "classification": "true (1)"}
{"sequenceChain": "FYCEICGREFTQKGNLLRHIKL [46F_47Y_49E_50I_52G_53R_54E_55F_67L_, Q9UKT9]", "classification": "false (0)"}
{"sequenceChain": "FACEICGAEFTQKGNLLRHIKL [46F_47A_49E_50I_52G_53A_54E_55F_67L_, Q9UKT9]", "classification": "true (1)"}
{"sequenceChain": "FLCEICGAGFTQKGNLLRHIKL [46F_47L_49E_50I_52G_53A_54G_55F_67L_, Q9UKT9]", "classification": "true (1)"}
{"sequenceChain": "FYCNQCGHGFTQKGNLLRHIKL [46F_47Y_49N_50Q_52G_53H_54G_55F_67L_, Q9UKT9]", "classification": "false (0)"}
{"sequenceChain": "FHCPICGACFTQKGNLLRHIKL [46F_47H_49P_50I_52G_53A_54C_55F_67L_, Q9UKT9]", "classification": "true (1)"}
{"sequenceChain": "FYCEICGAGFTQKGNLLRHIKL [46F_47Y_49E_50I_52G_53A_54G_55F_67L_, Q9UKT9]", "classification": "true (1)"}
{"sequenceChain": "FQCEICGAGFTQKGNLLRHIKL [46F_47Q_49E_50I_52G_53A_54G_55F_67L_, Q9UKT9]", "classification": "true (1)"}
{"sequenceChain": "FGCEICGAGFTQKGNLLRHIKL [46F_47G_49E_50I_52G_53A_54G_55F_67L_, Q9UKT9]", "classification": "true (1)"}
{"sequenceChain": "FICEQCGAIFTQKGNLLRHIKL [46F_47I_49E_50Q_52G_53A_54I_55F_67L_, Q9UKT9]", "classification": "false (0)"}
{"sequenceChain": "FYCEICGAEFTQKGNLLRHIKL [46F_47Y_49E_50I_52G_53A_54E_55F_67L_, Q9UKT9]", "classification": "true (1)"}
